experiment: CCTE_Shafer_MEA_dev_bursting_electrodes_number: CCTE's Neural Network Formation Assay for Number of Bursting Electrodes, Shafer Lab (AID 2284043)
Results filed as inconclusive are left out. Active and inactive are the calls of the source. How the source made its calls: active means hit-call score of the fitted dose curve at least 0.9, where 1 is the maximum; inconclusive means response in the unintended direction; inactive means score below 0.9.
Entry note: the call must match one of active, inactive

> print(dat)
                              compound  label.class
1           c1cc2ccc3cccc4ccc(c1)c2c34     inactive
2       CCC(C)(c1ccc(O)cc1)c1ccc(O)cc1       active
3  ClC(Cl)=C(c1ccc(Cl)cc1)c1ccc(Cl)cc1       active

## Task Please state the recorded outcome for this compound: O=S(=O)(O)C(F)(F)C(F)(F)C(F)(F)C(F)(F)F
## Result active

## Task Please state the recorded outcome for this compound: C=CC(N)=O
## Result inactive

## Task Please state the recorded outcome for this compound: ClC1=C(Cl)[C@]2(Cl)[C@@H]3[C@@H]4C[C@@H]([C@H]5O[C@@H]45)[C@@H]3[C@@]1(Cl)C2(Cl)Cl
## Result active

## Task Please state the recorded outcome for this compound: O=S(=O)(O)C(F)(F)C(F)(F)C(F)(F)C(F)(F)C(F)(F)C(F)(F)F
## Result inactive

----------
read-out: Collagen IV, COL4A1 (gene 1282); assay: BSK_MyoF_CollagenIV: BioMAP Diversity Plus: MyoF Assay for Collagen IV Biomarker Activity (AID 2284247); details: primary human lung fibroblasts
Active and inactive are the calls of the source. The calls were made as follows: active = hit-call score of the fitted dose curve at least 0.9, where 1 is the maximum; inactive = score below 0.9.
Entry note: the call must match one of active, inactive

## Task Please state the recorded outcome for this molecule: Oc1c(Cl)c(Cl)c(Cl)c(Cl)c1Cl
## Result active

## Task Please state the recorded outcome for this molecule: O=C(O)C(F)(F)C(F)(F)C(F)(F)C(F)(F)C(F)(F)F
## Result inactive

## Task Please state the recorded outcome for this molecule: O=S(=O)(O)C(F)(F)C(F)(F)C(F)(F)C(F)(F)F
## Result inactive

## Task Please state the recorded outcome for this molecule: Sc1ccccc1
## Result inactive

----------
Target: mouse Estrogen Receptor alpha (Era), Esr1 (gene 13982) (UniProt P19785)
Sequence (P19785 whole entry, looked up): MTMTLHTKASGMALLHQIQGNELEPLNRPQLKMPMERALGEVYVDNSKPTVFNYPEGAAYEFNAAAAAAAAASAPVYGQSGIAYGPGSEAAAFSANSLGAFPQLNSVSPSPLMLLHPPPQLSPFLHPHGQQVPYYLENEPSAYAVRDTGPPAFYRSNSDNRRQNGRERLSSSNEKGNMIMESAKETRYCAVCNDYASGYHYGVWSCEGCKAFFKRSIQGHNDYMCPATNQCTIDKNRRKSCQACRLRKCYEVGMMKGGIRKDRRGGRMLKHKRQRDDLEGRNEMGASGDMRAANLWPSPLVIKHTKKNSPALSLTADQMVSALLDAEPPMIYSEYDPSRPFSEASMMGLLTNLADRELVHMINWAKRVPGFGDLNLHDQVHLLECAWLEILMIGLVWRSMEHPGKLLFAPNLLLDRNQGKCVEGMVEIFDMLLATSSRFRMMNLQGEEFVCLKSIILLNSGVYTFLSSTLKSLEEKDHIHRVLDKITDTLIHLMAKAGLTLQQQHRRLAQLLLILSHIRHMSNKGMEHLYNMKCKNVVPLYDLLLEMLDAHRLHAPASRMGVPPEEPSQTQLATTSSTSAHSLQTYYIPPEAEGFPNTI
Experiment: NVS_NR_mERa: NovaScreen (NVS) Nuclear Receptor Binding Assay for mouse Estrogen Receptor alpha (Era) (AID 2283378);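 further: hit means loss of bound radioligand signal relative to DMSO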
Method: NVS_NR_mERa is a biochemical, single-readout assay that uses extracted gene-proteins in a cell-free assay. Measurements were taken 18 hours after chemical dosing in a 96-well plate.NVS_NR_mERa is one of one assay component(s) measured or calculated from the NVS_NR_mERa assay. […] This assay endpoint, NVS_NR_mERa, was analyzed in the positive analysis fitting direction relative to DMSO as the negative control and baseline of activity. […]
Results filed as inconclusive are left out. Activity calls are given as the source filed them. Rule for the calls: active = hit-call score of the fitted dose curve at least 0.9, where 1 is the maximum; inconclusive = response in the unintended direction; inactive = score below 0.9.
Entry note: the call must match one of active, inactive

For orientation, consider the following solved cases.
> print(dat)
                                   compound  label.class
1  ClC1=C(Cl)[C@]2(Cl)[C@@H]3[C@H]4C[C@H]([C@@H]5O[C@H]45)[C@@H]3[C@@]1(Cl)C2(Cl)Cl     inactive
2               Oc1c(Cl)c(Cl)c(Cl)c(Cl)c1Cl     inactive
3      CCCCCCCCOC(=O)c1ccccc1C(=O)OCCCCCCCC     inactive
4                       C=CC(=O)NCNC(=O)C=C     inactive
5  CCC(=O)O[C@H]1CC[C@H]2[C@@H]3CCC4=CC(=O)CC[C@]4(C)[C@H]3CC[C@]12C     inactive
6    CCOC(=O)C(O)(c1ccc(Cl)cc1)c1ccc(Cl)cc1     inactive
7  NS(=O)(=O)C(F)(F)C(F)(F)C(F)(F)C(F)(F)C(F)(F)C(F)(F)C(F)(F)C(F)(F)F     inactive
8       ClC(Cl)=C(c1ccc(Cl)cc1)c1ccc(Cl)cc1     inactive
9            CCCCCCCCCC[N+](C)(C)CCCCCCCCCC       active

## Task Please state the recorded outcome for this compound: CCCCCCOC(=O)c1ccccc1C(=O)OCCCCCC
## Result inactive

----------
read-out: Cytochrome P450 2C19 (Homo sapiens) (UniProt P33261); assay: LTEA_HepaRG_CYP2C19: Life Technologies and Expression Analysis (LTEA) Assay for CYP2C19 using HepaRG (AID 2283482); conditions: mRNA level, 48 h; actives raise or lower the signal
Sequence (P33261 whole entry, looked up): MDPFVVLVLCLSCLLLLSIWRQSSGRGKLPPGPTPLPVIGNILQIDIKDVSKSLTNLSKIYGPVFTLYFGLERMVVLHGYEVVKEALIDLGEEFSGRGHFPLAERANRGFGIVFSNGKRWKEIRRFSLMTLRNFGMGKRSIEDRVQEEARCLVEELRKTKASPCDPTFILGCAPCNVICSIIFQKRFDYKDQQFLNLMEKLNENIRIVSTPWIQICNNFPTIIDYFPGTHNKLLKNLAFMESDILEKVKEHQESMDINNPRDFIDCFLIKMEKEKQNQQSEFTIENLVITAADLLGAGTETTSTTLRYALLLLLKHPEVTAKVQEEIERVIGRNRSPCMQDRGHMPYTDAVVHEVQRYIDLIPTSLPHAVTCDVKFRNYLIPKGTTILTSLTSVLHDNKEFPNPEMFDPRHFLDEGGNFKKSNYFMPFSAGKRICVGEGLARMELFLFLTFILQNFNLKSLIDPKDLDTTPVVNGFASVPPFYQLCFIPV
Active and inactive are the calls of the source. How the source made its calls: active means hit-call score of the fitted dose curve at least 0.9, where 1 is the maximum; inactive means score below 0.9.
Entry note: the call must match one of TRUE (active), FALSE (inactive)

For orientation, consider the following solved cases.
> print(dat)
                                   compound  label.class
1  NS(=O)(=O)C(F)(F)C(F)(F)C(F)(F)C(F)(F)C(F)(F)C(F)(F)C(F)(F)C(F)(F)F         TRUE
2                             Cc1cccc(C)c1N        FALSE
3  O=C(O)C(F)(F)C(F)(F)C(F)(F)C(F)(F)C(F)(F)C(F)(F)C(F)(F)C(F)(F)C(F)(F)F         TRUE
4   CCC(C)(CC)c1cc(NC(=O)c2c(OC)cccc2OC)on1         TRUE

## Task Please state the recorded outcome for this compound: CC(c1ccc(O)cc1)(c1ccc(O)cc1)c1ccc(O)cc1
## Result TRUE

----------
test: ATG_DR4_LXR_CIS: Attagene CIS-FACTORIAL HepG2 Assay for human Liver X Receptor (LXR), DR4 submotif (AID 2282929); conditions: HepG2 Attagene DR4 cis-reporter, mRNA transcription; actives raise or lower the signal
The source made the active and inactive calls. Rule for the calls: active = hit-call score of the fitted dose curve at least 0.9, where 1 is the maximum; inactive = score below 0.9.
Entry note: the call must match one of active, inactive

For orientation, consider the following solved cases.
> print(dat)
                                   compound  label.class
1                           Cc1ccc(O)c(C)c1     inactive
2                                  OCC(O)CO     inactive
3                           Oc1ccc(Cl)cc1Cl     inactive
4                c1cc2ccc3cccc4ccc(c1)c2c34     inactive
5  O=C(NC(=O)c1cc(F)c(F)cc1Cl)Nc1cc(F)ccc1N1CCC(C(=O)O)CC1     inactive
6  O=C(O)C(F)(F)C(F)(F)C(F)(F)C(F)(F)C(F)(F)F     inactive
7                       C=CC(=O)NCNC(=O)C=C     inactive
8                                 C=CC(N)=O       active

## Task Please state the recorded outcome for this compound: CC(C)(O)C(=O)Nc1ccc([N+](=O)[O-])c(C(F)(F)F)c1
## Result inactive

## Task Please state the recorded outcome for this compound: Cc1ccccc1O
## Result inactive

## Task Please state the recorded outcome for this compound: CC(C)(c1ccccc1)c1ccc(O)cc1
## Result active

## Task Please state the recorded outcome for this compound: CCCCCCCCCC[N+](C)(C)CCCCCCCCCC
## Result active

## Task Please state the recorded outcome for this compound: ClC1=C(Cl)[C@]2(Cl)[C@@H]3[C@@H]4C[C@@H]([C@H]5O[C@@H]45)[C@@H]3[C@@]1(Cl)C2(Cl)Cl
## Result active

----------
read-out: CD69, CD69 (gene 969); test: BSK_SAg_CD69: BioMAP Diversity Plus: SAg Assay for CD69 Biomarker Activity (AID 2283089); settings: primary human HUVEC with PBMC; actives raise or lower the signal
Calls of active or inactive are those of the source. How the source made its calls: active means hit-call score of the fitted dose curve at least 0.9, where 1 is the maximum; inactive means score below 0.9.
Entry note: the call must match one of active, inactive

> print(dat)
                           molecule  label.class
1               c1ccc(-c2ccccc2)cc1     inactive
2  CN(C)c1nc(=O)n(C2CCCCC2)c(=O)n1C     inactive

## Task Please state the recorded outcome for this molecule: O=C(NC(=O)c1cc(F)c(F)cc1Cl)Nc1cc(F)ccc1N1CCC(C(=O)O)CC1
## Result inactive

## Task Please state the recorded outcome for this molecule: Cc1ccc(O)c(C)c1
## Result inactive

## Task Please state the recorded outcome for this molecule: O=S(=O)(O)C(F)(F)C(F)(F)C(F)(F)C(F)(F)F
## Result inactive

## Task Please state the recorded outcome for this molecule: Clc1ccc(C(c2ccccc2Cl)C(Cl)(Cl)Cl)cc1 (configuration not stated)
## Result active

## Task Please state the recorded outcome for this molecule: Cc1ccccc1CO[C@@H]1C[C@@]2(C(C)C)CC[C@]1(C)O2
## Result inactive

----------
assay: BSK_3C_SRB: Viability Assessment in the BioMAP Diversity Plus: 3C Assay (AID 2283023); settings: primary human endothelial cells (HUVEC);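 further: cells read 24 h after compound dosing; fitted both ways against DMSO so a hit may be signal rise or drop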
The source made the active and inactive calls. The calls were made as follows: active = hit-call score of the fitted dose curve at least 0.9, where 1 is the maximum; inactive = score below 0.9.
Entry note: the call must match one of active, inactive

> print(dat)
                                    compound  label.class
 1                     CCSC(=O)N(CC)C1CCCCC1     inactive
 2   CC(c1ccc(O)cc1)(c1ccc(O)cc1)c1ccc(O)cc1       active
 3                   Nc1ccc(-c2ccc(N)cc2)cc1     inactive
 4       C1CC2OC2CC1C1CO1 (stereo not drawn)     inactive
 5  O=C(NC(=O)c1c(F)cccc1F)Nc1cc(Cl)c(OC(F)(F)C(F)F)c(Cl)c1     inactive
 6                           Cc1ccc(O)c(C)c1     inactive
 7                       C=CC(=O)NCNC(=O)C=C     inactive
 8                              CCOCCOC(C)=O     inactive
 9                            Clc1ccc(Cl)cc1     inactive
10    CCOC(=O)C(O)(c1ccc(Cl)cc1)c1ccc(Cl)cc1       active

## Task Please state the recorded outcome for this compound: CCC(C)c1cc([N+](=O)[O-])cc([N+](=O)[O-])c1O (stereo not drawn)
## Result active

## Task Please state the recorded outcome for this compound: ClC1=C(Cl)[C@]2(Cl)[C@@H]3[C@@H]4C[C@@H]([C@H]5O[C@@H]45)[C@@H]3[C@@]1(Cl)C2(Cl)Cl
## Result active

## Task Please state the recorded outcome for this compound: COc1ccc(O)c(C(C)(C)C)c1
## Result inactive
